For each of the binders below, state its human MASP1 IC50.
# TESTED_TARGET: T1, Recombinant human MASP1 enzyme (fragment corresponding to amino acids 297-699, C-terminal His Tag) (human, UniProt P48740 297-699)
# T1 sequence: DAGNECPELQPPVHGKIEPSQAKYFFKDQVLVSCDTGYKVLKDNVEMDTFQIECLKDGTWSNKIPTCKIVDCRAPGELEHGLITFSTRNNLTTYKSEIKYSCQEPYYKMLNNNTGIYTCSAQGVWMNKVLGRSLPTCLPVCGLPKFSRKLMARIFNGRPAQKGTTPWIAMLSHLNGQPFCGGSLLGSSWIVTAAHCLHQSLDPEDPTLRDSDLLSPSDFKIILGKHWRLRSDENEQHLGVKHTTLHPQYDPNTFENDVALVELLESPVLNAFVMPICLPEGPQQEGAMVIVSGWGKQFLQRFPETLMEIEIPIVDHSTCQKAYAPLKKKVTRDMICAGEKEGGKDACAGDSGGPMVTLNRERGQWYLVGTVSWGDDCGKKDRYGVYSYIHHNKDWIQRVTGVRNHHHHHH
# TEST_DESCRIPTION: cell-based or functional assay
Bridge positions count the residues as written; N and C are the ends. Square brackets hold non-standard residues; d marks the D form. Ends that are not written are not given here. Nva(3-Et) = CCC(CC)[C@H](N)C(=O)O; tBuAla = CC(C)(C)C[C@H](N)C(=O)O; Pen = CC(C)(S)[C@H](N)C(=O)O; Dab = NCC[C@H](N)C(=O)O; Sar = CNCC(=O)O
Give bare numbers, in nM.

Here is how some binders turned out for human MASP1 IC50.
{"columns": ["BINDER", "REPORTED_MEASUREMENT"],
 "data": [
  ["[Dab]ICSRS[tBuAla]PPI[Pen]IP-NH2 (disulfide 3-11; N-terminus assumed; SMILES CC[C@H](C)[C@H](NC(=O)[C@@H](N)CCN)C(=O)N[C@H]1CSSC(C)(C)[C@@H](C(=O)N[C@H](C(=O)N2CCC[C@H]2C(N)=O)[C@@H](C)CC)NC(=O)[C@H]([C@@H](C)CC)NC(=O)[C@@H]2CCCN2C(=O)[C@@H]2CCCN2C(=O)[C@H](CC(C)(C)C)NC(=O)[C@H](CO)NC(=O)[C@H](CCCNC(=N)N)NC(=O)[C@H](CO)NC1=O) [(Dab)-IC+SRS-((tBu)A)-PPI-(Pen)+IP-NH2]", 4],
  ["AICSRSLPP[Nva(3-Et)]CIPD-NH2 (disulfide 3-11; N-terminus assumed; SMILES CCC(CC)[C@@H]1NC(=O)[C@@H]2CCCN2C(=O)[C@@H]2CCCN2C(=O)[C@H](CC(C)C)NC(=O)[C@H](CO)NC(=O)[C@H](CCCNC(=N)N)NC(=O)[C@H](CO)NC(=O)[C@@H](NC(=O)[C@@H](NC(=O)[C@H](C)N)[C@@H](C)CC)CSSC[C@@H](C(=O)N[C@H](C(=O)N2CCC[C@H]2C(=O)N[C@@H](CC(=O)O)C(N)=O)[C@@H](C)CC)NC1=O) [AIC+SRSLPP-((S)-2-amino-3-ethyl-pentanoic acid)-C+IPD-NH2]", 5.8],
  ["[Sar]ICSRS[tBuAla]PPI[Pen]IP-NH2 (disulfide 3-11; N-terminus assumed; SMILES CC[C@H](C)[C@H](NC(=O)CNC)C(=O)N[C@H]1CSSC(C)(C)[C@@H](C(=O)N[C@H](C(=O)N2CCC[C@H]2C(N)=O)[C@@H](C)CC)NC(=O)[C@H]([C@@H](C)CC)NC(=O)[C@@H]2CCCN2C(=O)[C@@H]2CCCN2C(=O)[C@H](CC(C)(C)C)NC(=O)[C@H](CO)NC(=O)[C@H](CCCNC(=N)N)NC(=O)[C@H](CO)NC1=O) [((N-Me)G)-IC+SRS-((tBu)A)-PPI-(Pen)+IP-NH2]", 3.8]
]}

Alright, here's another binder for you.
[in] Identify human MASP1 IC50 associated with the binder AICSRSLPPI[Pen]IPD-NH2 (disulfide 3-11; N-terminus assumed; SMILES CC[C@H](C)[C@H](NC(=O)[C@H](C)N)C(=O)N[C@H]1CSSC(C)(C)[C@@H](C(=O)N[C@H](C(=O)N2CCC[C@H]2C(=O)N[C@@H](CC(=O)O)C(N)=O)[C@@H](C)CC)NC(=O)[C@H]([C@@H](C)CC)NC(=O)[C@@H]2CCCN2C(=O)[C@@H]2CCCN2C(=O)[C@H](CC(C)C)NC(=O)[C@H](CO)NC(=O)[C@H](CCCNC(=N)N)NC(=O)[C@H](CO)NC1=O) [AIC+SRSLPPI-(Pen)+IPD-NH2]
[out] 4.3

# credit: patent US20210246166A1
